B1: library; numbered along this chain (parent)
chain: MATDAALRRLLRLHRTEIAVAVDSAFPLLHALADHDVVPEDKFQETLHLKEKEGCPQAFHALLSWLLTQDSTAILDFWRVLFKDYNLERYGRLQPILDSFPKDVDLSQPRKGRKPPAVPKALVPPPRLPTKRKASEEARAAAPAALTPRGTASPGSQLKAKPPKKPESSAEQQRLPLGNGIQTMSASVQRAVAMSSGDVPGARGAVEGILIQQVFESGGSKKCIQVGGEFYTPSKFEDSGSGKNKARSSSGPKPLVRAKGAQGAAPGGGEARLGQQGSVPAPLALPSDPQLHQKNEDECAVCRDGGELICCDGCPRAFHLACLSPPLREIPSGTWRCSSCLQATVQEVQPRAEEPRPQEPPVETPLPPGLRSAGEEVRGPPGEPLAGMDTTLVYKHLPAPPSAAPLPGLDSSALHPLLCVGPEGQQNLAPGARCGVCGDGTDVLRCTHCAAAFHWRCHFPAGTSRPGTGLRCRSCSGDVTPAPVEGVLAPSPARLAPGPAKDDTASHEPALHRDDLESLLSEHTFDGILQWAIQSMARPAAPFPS

variants of: B1; assay: AIRE transcriptional activation functional score (insulin promoter-GFP; nonsense median 0, synonymous median 1) (normalised score); higher = higher AIRE activity (more reporter activation); conditions: with insulin promoter-GFP reporter in HEK293
Each entry gets NO if its AIRE transcriptional activation functional score stays under 0.6, and YES if its AIRE transcriptional activation functional score is 0.6 or above.

>>> df
    change  assigned_class
 0   P254C             YES
 1   K159W             YES
 2    F77Y              NO
 3   P280D             YES
 4    H14T              NO
 5    H60F             YES
 6    L13S              NO
 7   P286A             YES
 8    K50D             YES
 9   L291I             YES
10   E485G             YES
11   D515Y              NO
12    D34S              NO
13   P154Y             YES
14    P56Y              NO
15   T504L             YES
16   S521I              NO
17   E517G             YES
18   E423Q             YES
19   G227T              NO
20   W335V             YES
21    S71D             YES
22    L13H              NO
23   G305L             YES
24   A489D             YES
25   F100D              NO
26   A141K             YES
27    H35D              NO
28   H319P             YES
29   P407C             YES
30   G228E             YES
31   D105Y             YES
32   P286S             YES
33    R15Y              NO
34   A541N             YES
35   T151V             YES
36   Q276M             YES
37   T334A             YES
38   A541G             YES
39   E522T              NO
40   G424I              NO
41   Q225S             YES
42   Q182S             YES
43   E137R              NO
44   S324C             YES
45    D36A              NO

The reported measurements were obtained from the supplement of paper PMC12667976.
